Provenance of the data: patent EP1899377B1

Biological target: T1, GST-human NOGO-A56 (human, UniProt Q9NQC3 586-785)
T1 construct: GST-tagged fusion expressed in E. coli BL21 from pGEX-6P1; also called hNOGO; human NOGO 5+6 GST; not shown: Glutathione S-transferase tag encoded by vector pGEX-6P1 (N-terminal, with vector linker)
T1 sequence: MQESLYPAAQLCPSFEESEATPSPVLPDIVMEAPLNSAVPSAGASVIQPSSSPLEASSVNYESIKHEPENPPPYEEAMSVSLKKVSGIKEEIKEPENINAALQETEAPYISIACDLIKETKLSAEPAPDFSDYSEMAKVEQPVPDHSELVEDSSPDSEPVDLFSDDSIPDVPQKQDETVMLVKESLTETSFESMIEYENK
Test: SPR off-rate ranking, supernatant from small-scale transient transfection over immobilised GST-human NOGO-A56; single experiment
Readings of koff for the listed binders
Number in s⁻¹, nothing else.

As a guide, the following entries are already answered.
H24Lc (antibody, human IgG1, kappa, V domains shown) VH: QVQLVQSGAEVKKPGASVKVSCKASGYTFTSYWMHWVKQRPGQGLEWIGNINPSNGGTNYNEKFKSKATLTVDTSTSTAYMELSSLRSEDTAVYYCELGQGYWGQGTLVTVSS VL: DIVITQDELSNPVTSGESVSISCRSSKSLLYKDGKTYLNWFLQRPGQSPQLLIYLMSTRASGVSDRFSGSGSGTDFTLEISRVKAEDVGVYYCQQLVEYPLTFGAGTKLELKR :: 0.00383
H19Lc (antibody, human IgG1, kappa, V domains shown) VH: QVQLVQSGAEVKKPGASVKVSCKASGYTFTSYWMHWVRQRPGQGLEWIGNINPSNGGTNYNEKFKSRATMTRDTSTSTAYMELSSLRSEDTAVYYCELGQGYWGQGTLVTVSS VL: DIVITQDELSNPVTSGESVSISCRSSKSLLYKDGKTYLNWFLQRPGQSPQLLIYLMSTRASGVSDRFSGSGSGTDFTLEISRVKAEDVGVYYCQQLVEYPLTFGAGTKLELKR :: 0.00595
H21Lc (antibody, human IgG1, kappa, V domains shown) VH: QVQLVQSGAEVKKPGASVKVSCKASGYTFTSYWMHWVRQRPGQGLEWIGNINPSNGGTNYNEKFKSKATMTRDTSTSTAYMELSSLRSEDTAVYYCELGQGYWGQGTLVTVSS VL: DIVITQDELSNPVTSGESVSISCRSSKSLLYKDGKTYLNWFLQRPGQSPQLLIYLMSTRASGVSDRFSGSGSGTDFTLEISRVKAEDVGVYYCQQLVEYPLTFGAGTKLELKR :: 0.00569
H19L13 (antibody, human IgG1, kappa, V domains shown) VH: QVQLVQSGAEVKKPGASVKVSCKASGYTFTSYWMHWVRQRPGQGLEWIGNINPSNGGTNYNEKFKSRATMTRDTSTSTAYMELSSLRSEDTAVYYCELGQGYWGQGTLVTVSS VL: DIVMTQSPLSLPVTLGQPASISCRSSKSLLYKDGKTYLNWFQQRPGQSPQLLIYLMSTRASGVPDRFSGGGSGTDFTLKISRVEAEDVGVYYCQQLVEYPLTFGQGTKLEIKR :: 0.013
H22L16 (antibody, human IgG1, kappa, V domains shown, human gamma1 mutated constant region, human kappa) VH: QVQLVQSGAEVKKPGASVKVSCKASGYTFTSYWMHWVKQRPGQGLEWIGNINPSNGGTNYNEKFKSKATMTRDTSTSTAYMELSSLRSEDTAVYYCELGQGYWGQGTLVTVSS VL: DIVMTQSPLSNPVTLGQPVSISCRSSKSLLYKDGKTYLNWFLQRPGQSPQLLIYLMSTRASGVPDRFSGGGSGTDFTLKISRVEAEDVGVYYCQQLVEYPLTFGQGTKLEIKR :: 0.00778
H20L16 (antibody, human IgG1, kappa, V domains shown, human gamma1 mutated constant region, human kappa; also called H20L16 FL) VH: QVQLVQSGAEVKKPGASVKVSCKASGYTFTSYWMHWVRQAPGQGLEWIGNINPSNGGTNYNEKFKSKATMTRDTSTSTAYMELSSLRSEDTAVYYCELGQGYWGQGTLVTVSS VL: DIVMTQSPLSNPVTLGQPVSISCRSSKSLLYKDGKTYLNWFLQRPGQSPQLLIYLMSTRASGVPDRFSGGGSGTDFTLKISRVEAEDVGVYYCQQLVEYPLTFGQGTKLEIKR :: 0.00718

Here is another binder to look at.
Which koff is listed for HcLc (antibody, human IgG1, kappa, V domains shown, also called chimera of 2A10; 2A10 chimeric antibody) VH: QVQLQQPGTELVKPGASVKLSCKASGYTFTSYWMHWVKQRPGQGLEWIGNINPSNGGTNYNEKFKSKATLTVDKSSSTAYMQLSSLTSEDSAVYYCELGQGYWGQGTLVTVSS VL: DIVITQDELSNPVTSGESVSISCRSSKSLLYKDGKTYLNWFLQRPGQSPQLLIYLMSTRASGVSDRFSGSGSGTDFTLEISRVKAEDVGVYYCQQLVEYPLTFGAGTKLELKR ?
0.00392
